Please respond with reported Renilla luciferase signal for every item in the list.
# System: HEK293T (UBE3A T485A transfected, BAR Wnt reporter)
# Assay Name: Renilla luciferase signal (cell health) relative to plate median (fold (linear ratio)); higher = higher Renilla signal
# Measurement Setup: concentration: 10 uM; 24 h
The full ranking holds about 1,100 compounds; the median of “Renilla luciferase signal (cell health) relative to plate median” is about 0.97, and the highest 2% start at about 1.6. Shown is part of a subset that was picked to be rich in the highest values.

{"Compound": "Cc1ncc([C@@H](CCCCCCc2ccc3c(n2)NCCC3)CC(=O)O)cn1", "Study System": "HEK293T (UBE3A T485A transfected, BAR Wnt reporter)", "Value": 0.796}
{"Compound": "NC(=O)N(O)[C@@H]1C=C[C@H](Oc2cccc(Oc3ccc(F)cc3)c2)C1", "Study System": "HEK293T (UBE3A T485A transfected, BAR Wnt reporter)", "Value": 1.14}
{"Compound": "CC(C)CCCCCCOC(=O)C1CCCCC1C(=O)OCCCCCCC(C)C (stereo not drawn) [Diisononyl cyclohexane-1,2-dicarboxylate]", "Study System": "HEK293T (UBE3A T485A transfected, BAR Wnt reporter)", "Value": 1.06}
{"Compound": "Cc1ccc(C)c(O)c1C", "Study System": "HEK293T (UBE3A T485A transfected, BAR Wnt reporter)", "Value": 0.965}
{"Compound": "O=C([O-])c1ccc2c(c1)nc(C(=O)NC1CCN(C3CC3)CC1)n2Cc1cc(-c2ccc(Cl)s2)on1.[Na+]", "Study System": "HEK293T (UBE3A T485A transfected, BAR Wnt reporter)", "Value": 0.947}
{"Compound": "Cc1ccc(N)cc1O", "Study System": "HEK293T (UBE3A T485A transfected, BAR Wnt reporter)", "Value": 1.28}

Report Renilla luciferase signal for every entry below.
1. CN(C)CCCN(C)CCCN(C)C
2. Nc1ccc(Nc2ccccc2)cc1

result:
0.918
0.71

Provide each entry's Renilla luciferase signal from the list below.
1. O=C(O)c1cc(/N=N/c2ccc(S(=O)(=O)Nc3ccccn3)cc2)ccc1O
2. CCCCCCCC(=O)O
3. O=[N+]([O-])c1ccc(O)cc1
4. O=c1ccc2ccccc2o1
5. CCOc1ccc2c(c1)C(C)=CC(C)(C)N2
6. O=C(Nc1ccc(Cl)cc1)Nc1ccc(Cl)c(Cl)c1

result:
0.691
0.83
0.876
1.11
0.86
0.408
